Values compiled from patent US8865756B2.

# Test system: HCV 1b_Huh-Luc/Neo-ET cell line persistently expressing a bicistronic genotype 1b replicon in Huh 7 cells
# Test details: HCV replicon assay (luciferase readout)
# Type: cell-based
# Setup conditions: Hepatitis C virus, Huh-7, 72 h, read-out: Inhibition of HCV genotype 1b
pEC50: −log10 of the molar value.
Recorded metric: pEC50

Known results for compounds:
Test smiles	Recorded metric	Result
COC(=O)N[C@@H](C(=O)N1CCC[C@H]1c1nc2ccc(C#Cc3ccc4nc([C@@H]5CCCN5C(=O)[C@H](NC(=O)OC)c5ccccc5)[nH]c4c3)cc2[nH]1)c1ccccc1	pEC50	> 9.00
O=C(NCC(=O)N1CCC[C@H]1c1ncc(C#Cc2ccc(-c3cnc([C@@H]4CCCN4C(=O)CNC(=O)C4CC4)[nH]3)cc2)[nH]1)C1CC1	pEC50	6.00 to 8.00
CN(C)C(=O)N[C@@H](C(=O)N1CCC[C@H]1c1ncc(-c2ccc(C#Cc3ccc(-c4cnc([C@@H]5CCCN5C(=O)[C@H](NC(=O)N(C)C)c5ccccc5)[nH]4)cc3)cc2)[nH]1)c1ccccc1	pEC50	> 9.00
CC(C)(C)OC(=O)N[C@@H](C(=O)N1CCC[C@H]1c1ncc(C#Cc2ccc(-c3cnc([C@@H]4CCCN4C(=O)[C@H](NC(=O)OC(C)(C)C)c4ccccc4)[nH]3)cc2)[nH]1)c1ccccc1	pEC50	> 9.00

From here, focus on the item given below.
What the record says about `COC(=O)N[C@@H](CCC(N)=O)C(=O)N1CCC[C@H]1c1ncc(-c2ccc(C#Cc3ccc4nc([C@@H]5CCCN5C(=O)[C@H](CCC(N)=O)NC(=O)OC)[nH]c4c3)cc2)[nH]1` : pEC50 is 8.00 to 9.00

###

# Tested on: HCV 1b_Huh-Luc/Neo-ET cell line persistently expressing a bicistronic genotype 1b replicon in Huh 7 cells
# Test details: HCV replicon assay (luciferase readout)
# Format: cell-based
# Setup conditions: Hepatitis C virus, Huh-7, 72 h, read-out: Inhibition of HCV genotype 1b
Recorded metric: EC50

Compound	Result
CC(C)[C@@H](NC(=O)C1CC1)C(=O)N1CCC[C@H]1C(=O)NCc1ccc(C#Cc2cnc([C@@H]3CCCN3C(=O)[C@H](NC(=O)C3CC3)C(C)C)[nH]2)cc1 [Compound 122]	1 to 9.9 nM
CC(C)(C)OC(=O)N[C@@H](C(=O)N1CCC[C@H]1C(=O)NCCc1ccc(C#Cc2cnc([C@@H]3CCCN3C(=O)[C@H](NC(=O)OC(C)(C)C)c3ccccc3)[nH]2)cc1)c1ccccc1 [Compound 124]	< 1 nM

From here, focus on the item given below.
What the record says about COC(=O)N[C@@H](C(=O)N1CCC[C@H]1c1ncc(-c2ccc(C#Cc3ccc(C(=O)NC[C@@H]4CCCN4C(=O)[C@@H](c4ccccc4)N(C)C)cc3)cc2)[nH]1)c1ccccc1 [Compound 234] : EC50 is < 1 nM

###

Record form. Attribute: pEC50. Fill in for each entry.
# Tested on: HCV 1b_Huh-Luc/Neo-ET cell line persistently expressing a bicistronic genotype 1b replicon in Huh 7 cells
# Test details: HCV replicon assay (luciferase readout)
# Assay type: cell-based
# Setup conditions: Hepatitis C virus, Huh-7, 72 h, read-out: Inhibition of HCV genotype 1b
pEC50: −log10 of the molar value.

Test smiles	Result
COC(=O)N[C@H](C(=O)N1CCC[C@H]1c1ncc(-c2ccc(C#Cc3ccc(-c4cnc([C@@H]5CCCN5C(=O)[C@@H](NC(=O)OC)[C@@H](C)OC)[nH]4)cc3)cc2)[nH]1)[C@@H](C)OC	> 9.00

// each listed compound needs a value for pEC50
1. O=C(N[C@@H](C(=O)N1CCC[C@H]1C(=O)Nc1ccc(C#Cc2cnc([C@@H]3CCCN3C(=O)[C@H](NC(=O)C3CC3)c3ccccc3)[nH]2)cc1)c1ccccc1)C1CC1
2. COC(=O)N[C@@H](C(=O)N1CCC[C@H]1c1ncc(C#Cc2ccc(-c3ccc(-c4cnc([C@@H]5CCCN5C(=O)[C@H](NC(=O)C5CC5)c5ccccc5)[nH]4)cc3)cc2)[nH]1)c1ccccc1
3. O=C(Cc1cccnc1)N[C@@H](C(=O)N1CCC[C@H]1c1cc(-c2ccc(C#Cc3ccc(-c4cnc([C@@H]5CCCN5C(=O)[C@H](NC(=O)Cc5cccnc5)c5ccccc5)[nH]4)cc3)cc2)n[nH]1)c1ccccc1
4. COC(=O)N[C@H](C(=O)N[C@@H](C)c1ncc(-c2ccc(C#Cc3ccc(-c4cnc([C@H](C)NC(=O)[C@@H](NC(=O)OC)[C@@H](C)O)[nH]4)cc3)cc2)[nH]1)[C@@H](C)O
5. COC(=O)N[C@H](C(=O)N(C)[C@@H](C)c1ncc(-c2ccc(C#Cc3ccc(-c4cnc([C@@H]5CCCN5C(=O)[C@@H](NC(=O)OC)C(C)C)[nH]4)cc3)cc2)[nH]1)C(C)C
6. CCN(CC)[C@@H](C(=O)N1CCC[C@H]1c1ncc(-c2ccc(C#Cc3ccc(-c4cnc([C@@H]5CCCN5C(=O)[C@@H](NC(=O)OC)C(C)C)[nH]4)cc3)cc2)[nH]1)c1ccccc1

output:
> 9.00
> 9.00
> 9.00
> 9.00
> 9.00
> 9.00

// each listed compound needs a value for pEC50
1. O=C([C@@H](c1ccccc1)N1CCCCC1)N1CCC[C@H]1c1ncc(-c2ccc(C#Cc3ccc(-c4cnc([C@@H]5CCCN5C(=O)[C@@H](c5ccccc5)N5CCCCC5)[nH]4)cc3)cc2)[nH]1
2. COC(=O)N[C@@H](CC(=O)N1CCC[C@H]1c1ncc(-c2ccc(C#Cc3ccc4nc([C@@H]5CCCN5C(=O)C[C@H](NC(=O)OC)C(C)C)[nH]c4c3)cc2)[nH]1)C(C)C

output:
1: > 9.00; 2: 6.00 to 8.00

###

# System: HCV 1b_Huh-Luc/Neo-ET cell line persistently expressing a bicistronic genotype 1b replicon in Huh 7 cells
# Test details: HCV replicon assay (luciferase readout)
# Format: cell-based
# Setup conditions: Hepatitis C virus, Huh-7, 72 h, read-out: Inhibition of HCV genotype 1b
Recorded metric: EC50

Molecule	Result
CC(C)[C@H](NC(=O)N1CCNCC1)C(=O)N1CCC[C@H]1c1ncc(-c2ccc(C#Cc3ccc(-c4cnc([C@@H]5CCCN5C(=O)[C@@H](NC(=O)N5CCNCC5)C(C)C)[nH]4)cc3)cc2)[nH]1 [Compound 967]	10 to 999 nM
COC(=O)N[C@@H](C(=O)N1CCC[C@H]1c1ncc(-c2ccc(C#Cc3ccc(-c4cnc([C@@H]5CCCN5C(=O)[C@H](NC(=O)[C@H]5CCCO5)c5ccccc5)[nH]4)cc3)cc2)[nH]1)c1ccccc1 [Compound 201]	< 1 nM
COC(=O)N[C@@H](C(=O)N1CCC[C@H]1c1ncc(-c2ccc(C#Cc3ccc(-c4cnc([C@@H]5CCCN5C(=O)[C@H](NC(=O)N5CCC(O)CC5)c5ccccc5)[nH]4)cc3)cc2)[nH]1)c1ccccc1 [Compound 241]	< 1 nM
O=C(N[C@@H](C(=O)N1CCC[C@H]1c1ncc(-c2ccc(C#Cc3ccc(-c4cnc([C@@H]5CCCN5C(=O)[C@H](NC(=O)N5CCCC5)c5ccccc5)[nH]4)cc3)cc2)[nH]1)c1ccccc1)N1CCCC1 [Compound 249]	< 1 nM
C[C@H]1OC(=O)N(C)[C@@H]1C(=O)N1CCC[C@H]1c1ncc(-c2ccc(C#Cc3ccc(-c4cnc([C@@H]5CCCN5C(=O)[C@@H]5[C@@H](C)OC(=O)N5C)[nH]4)cc3)cc2)[nH]1 [Compound 980]	10 to 999 nM

// each listed molecule needs a value for EC50
1. O=S(=O)(Cc1ccccc1)N1CCC[C@H]1c1ncc(-c2ccc(C#Cc3ccc4nc([C@@H]5CCCN5S(=O)(=O)Cc5ccccc5)[nH]c4c3)cc2)[nH]1 [Compound 1042]
2. CN(C)C(=O)N[C@@H](C(=O)N1CCC[C@H]1c1cc(-c2ccc(C#Cc3ccc(-c4cnc([C@@H]5CCCN5C(=O)[C@H](NC(=O)N(C)C)c5ccccc5)[nH]4)cc3)cc2)n[nH]1)c1ccccc1 [Compound 221]
3. COCCOc1c(C#Cc2ccc3nc([C@@H]4CCCN4C(=O)[C@@H](NC(=O)OC)C(C)C)[nH]c3c2)ccc(-c2cnc([C@@H]3CCCN3C(=O)[C@H](NC(=O)OC)C(C)C)[nH]2)c1OCCOC [Compound 1066]
4. CC(C)[C@@H](NC(=O)OC(C)(C)C)C(=O)N1CCC[C@H]1c1ncc(-c2ccc(C#Cc3ccc(-c4cnc([C@@H]5CCCN5C(=O)[C@H](NC(=O)OC(C)(C)C)C(C)C)[nH]4)cc3)cc2)[nH]1 [Compound 152]

output:
["> 1000 nM", "< 1 nM", "< 1 nM", "10 to 999 nM"]

###

# System: HCV 1b_Huh-Luc/Neo-ET cell line persistently expressing a bicistronic genotype 1b replicon in Huh 7 cells
# Test details: HCV replicon assay (luciferase readout)
# Assay type: cell-based
# Setup conditions: Hepatitis C virus, Huh-7, 72 h, read-out: Inhibition of HCV genotype 1b
Recorded metric: EC50

Known results for compounds:
Compound	EC50
C(#Cc1ccc2nc([C@@H]3CCCN3Cc3ccccc3)[nH]c2c1)c1ccc(-c2cnc([C@@H]3CCCN3Cc3ccccc3)[nH]2)cc1	> 1000 nM
C[C@@H](c1ncc(-c2ccc(C#Cc3ccc(-c4cnc([C@@H]5CCCN5C(=O)[C@H](NC(=O)OC(C)(C)C)c5ccccc5)[nH]4)cc3)cc2)[nH]1)N(C)C(=O)[C@H](NC(=O)OC(C)(C)C)c1ccccc1	< 1 nM
CCN(CC)[C@@H](C(=O)N1CCC[C@H]1c1ncc(-c2ccc(C#Cc3ccc(-c4cnc([C@@H]5CCCN5C(=O)[C@@H](c5ccccc5)N(CC)CC)[nH]4)cc3)cc2)[nH]1)c1ccccc1	< 1 nM
COC(=O)NC(C(=O)N1CCC[C@H]1c1ncc(-c2ccc(C#Cc3ccc(-c4cnc([C@@H]5CCCN5C(=O)[C@H](NC(=O)OC)[C@H](C)O)[nH]4)cc3)cc2)[nH]1)[C@H](C)O (stereo partly shown)	10 to 999 nM
COC(=O)N[C@H](C(=O)N1CCC[C@H]1c1ncc(-c2ccc(C#Cc3ccc4nc([C@@H]5CCCN5C(=O)[C@@H](C(C)C)N(C)C)[nH]c4c3)cc2)[nH]1)C(C)C	< 1 nM

// each listed compound needs a value for EC50
1. COC(=O)N[C@H](C(=O)N1CCOC[C@H]1c1ncc(-c2ccc(C#Cc3ccc4nc([C@@H]5CCCN5C(=O)[C@@H](NC(=O)OC)C(C)C)[nH]c4c3)cc2)[nH]1)C(C)C
2. COC(=O)N[C@@H](C(=O)N1CCC[C@H]1c1ncc(-c2ccc(C#Cc3ccc(-c4cnc([C@@H]5CCCN5C(=O)[C@H](NC(=O)N5CCC[C@H](O)C5)c5ccccc5)[nH]4)cc3)cc2)[nH]1)c1ccccc1
3. COC(=O)N[C@@H](C(=O)N1CCC[C@H]1C(=O)Nc1ccc(C#Cc2ccc(-c3cnc([C@@H]4CCCN4C(=O)[C@H](NC(=O)OC)c4ccccc4)[nH]3)cc2)cc1)c1ccccc1
4. COC(=O)N[C@H](C(=O)N1CCC[C@H]1c1ncc(C#Cc2ccc(-c3ccc4nc([C@@H]5CCCN5C(=O)[C@@H](NC(=O)OC)C(C)C)[nH]c4c3)cc2)[nH]1)C(C)C
5. COC(=O)N[C@H](C(=O)N[C@@H](C)c1ncc(-c2ccc(C#Cc3ccc(-c4cnc([C@@H]5CCCN5C(=O)[C@@H](c5ccccc5)N(C)C)[nH]4)cc3)cc2)[nH]1)C(C)C

output:
1: < 1 nM; 2: < 1 nM; 3: < 1 nM; 4: < 1 nM; 5: < 1 nM
